Header: IC50 / Oxysterols receptor LXR-beta (Homo sapiens) / multiple publications
experimental_readout: IC50 (nM)

[P] CC(C)(C)OC(=O)N1CC[C@H](c2ccccc2)[C@H](c2cccc(-c3cccc(S(C)(=O)=O)c3)c2)C1 (relative stereo)
[Q] Cc1cnc2c(C(F)(F)F)cccc2c1-c1cccc(CNc2ccc(CC(=O)O)c(C)c2C)c1
Please indicate which entry, P or Q , has the lower recorded IC50 value. State your choice using its label.
Q

[1] Cc1nc2c(C(F)(F)F)cccc2nc1-c1cc(Oc2cccc(S(=O)(=O)CCCCl)c2)ccc1Cl
[2] O=C(O)CCCS(=O)(=O)c1cccc(Oc2ccc(F)c(-c3ncnc4c(C(F)(F)F)cccc34)c2)c1
Please indicate which entry, 1 or 2 , has the lower recorded IC50 value. State your choice using its label.
1
(1: 204 nM, 2: 1200 nM)

###

Header: pIC50 / Oxysterols receptor LXR-beta (Homo sapiens) / multiple publications
pIC50: −log10 of the molar value.
experimental_readout: pIC50

Past entries and their recorded results:
compound_smiles: CS(=O)(=O)c1cccc(-c2cccc(-c3ncnc4c(C(F)(F)F)cccc34)c2)c1
pIC50: 6.71

compound_smiles: Cc1cc(C(=O)O)cc(C)c1OCc1cccc(-c2c(Cc3ccccc3)cnc3c(C(F)(F)F)cccc23)c1
pIC50: 7.49

compound_smiles: O=C(O)c1ccc(COc2cccc(-c3c(Cc4ccccc4)cnc4c(C(F)(F)F)cccc34)c2)cc1
pIC50: 7.28

compound_smiles: CC(C)S(=O)(=O)c1cccc(Oc2cccc(-c3c(C(C)(C)C)nc4c(C(F)(F)F)cccn34)c2)c1
pIC50: 8.21

compound_smiles: Cc1nc2c(Cl)cccc2n1-c1cc(Oc2ccc(S(C)(=O)=O)cc2)ccc1Cl
pIC50: 6.45

[A] NS(=O)(=O)c1cccc(Oc2ccc(Cl)c(-c3ncnc4c(C(F)(F)F)cccc34)c2)c1
[B] CC(C)c1nc2c(Cl)cccn2c1-c1cccc(Oc2cccc(S(=O)(=O)C(C)C)c2)c1
[C] OC(c1ccc(OCc2ccccc2)c(Cl)c1)(C(F)(F)F)C(F)(F)F
Order field: pIC50 | Direction: descending (largest first) // ordering of labels required in reply
B, A, C

[I] Cc1ccc(OCc2cccc(-c3c(Cc4ccccc4)cnc4c(C(F)(F)F)cccc34)c2)c(C(=O)O)c1
[II] O=C(O)[C@@H]1CCCN1C(=O)c1cccc(COc2cccc(-c3c(Cc4ccccc4)cnc4c(C(F)(F)F)cccc34)c2)c1
Higher pIC50 between I and II ? State your choice using its label.
II
(II: 7.01, I: 5.55)

###

Header: IC50 / Oxysterols receptor LXR-beta (Homo sapiens, UniProt P55055) / multiple publications
experimental_readout: IC50 (nM)

compound: CS(=O)(=O)c1cccc(Oc2cccc(-c3ncnc4c(C(F)(F)F)cccc34)c2)c1
IC50, nM: 151

[1] O=C(O)CC1CCc2c(OCc3cccc(-c4c(Cc5ccccc5)cnc5c(C(F)(F)F)cccc45)c3)cccc21 (stereo not shown)
[2] CS(=O)(=O)c1cccc(-c2cccc(C3CN(S(=O)(=O)c4ccccc4)CC(=O)N3c3ccccc3)c2)c1 (stereo not shown)
Higher IC50 between 1 and 2 ? State your choice using its label.
2
(2: 530 nM, 1: 8 nM)

###

Header: IC50 / Oxysterols receptor LXR-beta (Homo sapiens, UniProt P55055) / multiple publications
experimental_readout: IC50 (nM)

compound: CCS(=O)(=O)c1cccc(Oc2ccc(-c3c(C(C)C)nc4c(Cl)cccn34)cc2)c1
experimental_readout: IC50
u: nM
test_value: 345
//
compound: CS(=O)(=O)c1ccc(Oc2cccc(-c3ncnc4c(C(F)(F)F)cccc34)c2)cc1
experimental_readout: IC50
u: nM
test_value: 3620
//
compound: CCCN(Cc1ccc(-c2cccc(S(C)(=O)=O)c2)s1)S(=O)(=O)c1ccccc1C(F)(F)F
experimental_readout: IC50
u: nM
test_value: 104
//
compound: Cc1nc(-c2cc(Oc3cccc(S(=O)(=O)CCCC#N)c3)ccc2Cl)c2cccc(C(F)(F)F)c2n1
experimental_readout: IC50
u: nM
test_value: 150
//
compound: Cc1nc2cccc(C(F)(F)F)c2nc1-c1cc(Oc2cccc(S(=O)(=O)CCCO)c2)ccc1Cl
experimental_readout: IC50
u: nM
test_value: 48
//
compound: CC(C)CN(Cc1ccc(-c2cccc(S(C)(=O)=O)c2)s1)S(=O)(=O)c1c(Cl)cccc1Cl
experimental_readout: IC50
u: nM
test_value: 82
//
compound: CCc1nc2c(Cl)cccn2c1-c1ccc(Oc2cccc(S(C)(=O)=O)c2)cc1
experimental_readout: IC50
u: nM
test_value: 417
//
compound: CCc1nc2c(C(F)(F)F)cccn2c1-c1ccc(-c2ccc(S(C)(=O)=O)cc2)cc1
experimental_readout: IC50
u: nM
test_value: 4080
//
compound: Cc1cnc2c(C(F)(F)F)cccc2c1-c1cccc(CNc2cc(F)ccc2C(=O)O)c1
experimental_readout: IC50
u: nM
test_value: 5290
//
compound: Cc1ccc(Cl)cc1N1CCN(C(=O)[C@@H]2CN(S(C)(=O)=O)CC[C@@H]2c2ccc(F)cc2F)CC1 (single isomer, unassigned)
experimental_readout: IC50
u: nM
test_value: 2800

[A] CC(C)CN(Cc1ccnc(-c2cccc(S(C)(=O)=O)c2)c1)S(=O)(=O)c1ccccc1Cl
[B] COC(=O)[C@@](C)([C@H]1CCc2c([nH]c3ccc(Cl)cc23)C1)S(=O)(=O)c1ccccc1 (racemic)
[C] CC(C)c1cnc2c(Cl)cccc2c1-c1cccc(OC(=O)c2cc(S(C)(=O)=O)ccc2Cl)c1
Order field: IC50 | Direction: descending (largest first) // ordering of labels required in reply
B, A, C

[1] O=C(O)Cc1cccc(NCc2cccc(-c3c(Cc4ccccc4)cnc4c(C(F)(F)F)cccc34)c2)c1
[2] Cc1nc2c(C(F)(F)F)cccc2nc1-c1cccc(Oc2cccc(S(C)(=O)=O)c2)c1
Higher IC50 between 1 and 2 ? State your choice using its label.
2
